Experiment: method code SF, from DOI: 10.1016/s0928-0987(97)10019-7
Details: pH 7.4
measurement.kind: logD
Would you mind answering with just the numeric figure?

May I ask what logD has been recorded for CC(C)(C)S(=O)(=O)C[C@@H](Cc1ccccc1)C(=O)N[C@@H](Cc1cnc[nH]1)C(=O)N[C@@H](CC1CCCCC1)[C@@H](O)[C@@H](O)C1CC1 ?
2.75

###

Experiment: method code SF-RC, from DOI: 10.1016/j.apradiso.2005.06.012, PMID: 16131471
Conditions: pH 7.5
measurement.kind: logD
Please reply with the value in numeric form only.

Bench note: what logD did COc1ccc2[nH]c(I)c(CCNC(C)=O)c2c1 show?
2.52

###

Experiment: method code SF-AS, from DOI: 10.1248/cpb.35.377
Entries annotated with measured logP

OCc1cc(Cl)cc(Cl)c1 | 2.9

Shift focus to the following entry.
I'd like to know its logP. The molecule in question is Oc1ccc2ccccc2c1
2.75

###

Experiment: method code SF-GLC, from DOI: 10.1016/j.chemosphere.2005.05.003, PMID: 15967478
measurement.kind: logP
Reply briefly: the number, and no unit.

State the recorded logP for this entry: CC1=CCC(C(C)C)C=C1 (stereo unspecified)
4.58

###

Assay: method code SF-AS, from DOI: 10.1016/0021-9673(94)89049-8
Conditions: pH 7.0
We begin with a simple list: items and their reported logD.
I only need the number, thanks.

Example results:
Nc1ncnc2c1ncn2[C@@H]1O[C@H](CCl)[C@@H](O)[C@H]1O | -0.06
Nc1nc(F)nc2c1ncn2[C@@H]1O[C@H](CO)[C@@H](O)[C@H]1O | -0.8
Nc1nc(Cl)nc2c1ncn2[C@H]1C[C@H](O)[C@@H](CO)O1 | 0.03

Here's the next entry for you.
Form field: reported logD of Nc1nc(Cl)nc2c1ncn2C1OC(CO)C(O)C1O (centres undefined)
-0.37

###

measurement.kind: logP
// return a plain number; no unit text

Look up logP for this compound: O=C(NNCc1ccncc1)C1CCCN1C(=O)C(Cc1ccc(Cl)c(Cl)c1)NS(=O)(=O)Cc1ccccc1 (stereo unspecified)
2.57

###

measurement.kind: logP
Could you respond with only the numeric value?

So what does the record say about logP for Fc1cccc(-n2nnnc2Oc2ccccc2)c1 ?
3.6

###

Below, each entry is listed with its recorded logP.
Test: method code SF, from DOI: 10.1016/0165-1218(78)90089-7, PMID: 362190
Field format: numeric only.

O=[N+]([O-])c1nccn1CC(O)CCl (configuration not stated) | 0.15

Quick one: logP for N#Cc1ccc([N+](=O)[O-])n1CCO ?
0.6

###

Consider the following molecules and their measured logP readings.
Assay: method code SF-AS, from DOI: 10.1111/1523-1747.ep12263302, PMID: 6470515
Please state the value as a number alone, without comment.

A selection of reference data follows.
Nc1cc([N+](=O)[O-])ccc1O | 1.13
Nc1ccc(Cl)c(N)c1 | 0.85

Now turn to the next molecule.
Which logP reading was recorded for the molecule Nc1ccc(N)cc1 ?
-0.3

###

Assay: method code SF-AS, from DOI: 10.1021/je700381u
Conditions: pH 0.0
Listed below: logD values for each entry.
// return a plain number; no unit text

Here's what some known entries look like.
O=C(O)c1ccc(F)cc1Cl | 2.63
O=C(O)c1cc(Br)ccc1F | 3.43
O=C(O)c1ccc(Br)cc1F | 2.67
O=C(O)c1ccc(Cl)cc1F | 2.28

Could you now look at the following compound, please?
Entry O=C(O)c1cc(Br)ccc1Cl : reported logD = ?
3.16

###

Below: a set of entries, each annotated with reported logP.
Assay: method code SF-GLC, from DOI: 10.1016/0166-445x(88)90052-5

CCCCC1CO1 (configuration not stated) | 1.95

Now consider a different molecule.
logP lookup needed for C1OC1C1CO1 (configuration not stated) , thanks.
-0.28

###

Test: method code SF, from DOI: 10.1016/s0968-0896(00)00025-0, PMID: 10882003
measurement.kind: logP
Number, no unit, nothing else.

Looking for the measured logP of Cc1[nH]c(=O)c(C#N)cc1-c1ccncc1 , can you help?
0.42

###

Listed next: entries and their corresponding logP.
// return a plain number; no unit text

Recorded logP of CC(=O)O[C@H]1C(=O)[C@@]2(C)[C@H]([C@H](OC(=O)c3ccccc3)[C@]3(O)C[C@H](OC(=O)[C@@H](O)Cc4ccccc4)C(C)=C1C3(C)C)[C@]1(OC(C)=O)CO[C@@H]1C[C@@H]2O , please.
2.9

Look at this molecule and give its reported logP. CC(=O)O[C@H]1C(=O)[C@@]2(C)[C@H]([C@H](OC(=O)c3ccccc3)[C@]3(O)C[C@H](OC(=O)[C@H](O)Cc4ccccc4)C(C)=C1C3(C)C)[C@]1(OC(C)=O)CO[C@@H]1C[C@@H]2O
2.9

###

Assay: method code SF-HPLC, from DOI: 10.1023/a:1015828802490, PMID: 2308896
Conditions: pH 7.4
measurement.kind: logD
Please give the numeric answer without any surrounding text.

Any idea what its logD is? The compound is COc1c(C)c2c(c(OC(C)=O)c1C/C=C(\C)CCC(=O)OCC1COC(C)(C)O1)C(=O)OC2 (stereo unspecified)
2.87

###

Below, each of the compounds is paired with its reported logP value.
Assay: method code SF-AS, from DOI: 10.1016/0006-2952(80)90068-4, PMID: 6775639
Please state the value as a number alone, without comment.

Here is how some compounds turned out for logP.
CC1=CC(=O)C(C)=C(C)C1=O | 1.47
O=C1C(c2[nH]c3ccc(S(=O)(=O)O)cc3c2O)=Nc2ccc(S(=O)(=O)O)cc21 | -2

Note: attention shifts to another entry.
Suppose we examine the compound CC1=C(C)C(=O)C(C)=C(C)C1=O ; what logP value has been reported?
2.12

###

Test: method code SF-RC, from PMID: 3382460
Details: pH 7.0
measurement.kind: logD

Can you look up the measured logD of CNC(=O)OC1OC(=O)C2C3C=CC(C3)C12 (stereo unspecified) for me?
0.63

###

Experiment: method code SF-AS, from DOI: 10.3109/00498258909043190, PMID: 2618089
Conditions: pH 10.8
measurement.kind: logD
Number only, please.

Tell me the measured logD of O=C(Cn1c(=O)sc2ccc(Cl)cc21)N1CCN(CCO)CC1 , please.
1.04

###

# logD per record follows
Assay: method code SF, from PMID: 25193232
Conditions: pH 7.4
Answer as a number with no unit attached.

Please review the following examples before continuing.
O=C(NOC[C@H](O)CO)c1ncc2cncn2c1Nc1ccc(I)cc1F | 1.1
CC(O)CONC(=O)c1ncc2cncn2c1Nc1ccc(I)cc1F (stereo not drawn) | 2.2

Let us move to another entry and its logD.
Could you tell me which logD is on file for O=C(NOCCO)c1ccn2cncc2c1Nc1ccc(I)cc1F ?
2.05

###

# logP per entry
Experiment: method code SF, from DOI: 10.1248/cpb.39.1346, PMID: 1914012
In your answer, state the number alone without any accompanying words.

Before answering, review these 2 worked examples.
CC1(C)[C@@H](O[C@H]2O[C@H](C(=O)O)[C@@H](O)[C@H](O)[C@H]2O[C@@H]2O[C@H](C(=O)O)[C@@H](O)[C@H](O)[C@H]2O)CC[C@@]2(C)[C@@H]3C(=O)C=C4[C@H]5C[C@@](C)(C(=O)O)CC[C@@]5(C)CC[C@@]4(C)C3(C)CC[C@@H]12 (stereo partly drawn) | 2.8
CC1(C(=O)O)CCC2(C)CCC3(C)C(=CC(=O)C4C5(C)CCC(O)C(C)(C)C5CCC43C)C2C1 (stereo not drawn) | 4.77

Turning now to a further molecule:
logP lookup needed for O=[N+]([O-])c1cccc(O[C@@H]2O[C@H](CO)[C@@H](O)[C@H](O)[C@H]2O)c1 , thanks.
-0.46

###

Listed compounds paired with reported logD
Assay: method code SF-AS, from DOI: 10.1016/j.bioorg.2006.09.003, PMID: 17078995
Conditions: pH 7.4
# respond with the number and nothing more

COc1cc(CCOC(C)=O)ccc1O | 1.5
OCCc1ccc(O)c(O)c1 | 0.09

We next turn to a different compound, shown below.
Dear colleague, I am looking for the recorded logD of the following compound: CCC(=O)OCCc1ccc(O)c(OC)c1
2.33

###

Assay: method code SF-HPLC, from DOI: 10.1016/j.nucmedbio.2010.03.011, PMID: 20610161
Conditions: pH 7.4
measurement.kind: logD
Could you keep your reply to the number by itself?

What does the record list as logD for O=[N+]([O-])c1ncn(CC(O)CF)n1 (stereo unspecified) ?
-0.46

###

Test: method code SF, from DOI: 10.1002/ps.2780340212
Details: pH 7.0
logD values, listed per item
Keep the answer to the number alone.

CS(=O)(=O)c1cccc(NC(N)=O)c1 | -0.1

Look up logD for this compound: CCCCc1c(C)[nH]c(NCC)nc1=O
2.2
